molecular target: RET G810R (Homo sapiens, UniProt P07949, G810R); experiment: In vitro kinase activity assay (mobility shift assay), RET G810R; details: ATP 201 μM, reaction time 4 h
Sequence (P07949 29-1114 G810R): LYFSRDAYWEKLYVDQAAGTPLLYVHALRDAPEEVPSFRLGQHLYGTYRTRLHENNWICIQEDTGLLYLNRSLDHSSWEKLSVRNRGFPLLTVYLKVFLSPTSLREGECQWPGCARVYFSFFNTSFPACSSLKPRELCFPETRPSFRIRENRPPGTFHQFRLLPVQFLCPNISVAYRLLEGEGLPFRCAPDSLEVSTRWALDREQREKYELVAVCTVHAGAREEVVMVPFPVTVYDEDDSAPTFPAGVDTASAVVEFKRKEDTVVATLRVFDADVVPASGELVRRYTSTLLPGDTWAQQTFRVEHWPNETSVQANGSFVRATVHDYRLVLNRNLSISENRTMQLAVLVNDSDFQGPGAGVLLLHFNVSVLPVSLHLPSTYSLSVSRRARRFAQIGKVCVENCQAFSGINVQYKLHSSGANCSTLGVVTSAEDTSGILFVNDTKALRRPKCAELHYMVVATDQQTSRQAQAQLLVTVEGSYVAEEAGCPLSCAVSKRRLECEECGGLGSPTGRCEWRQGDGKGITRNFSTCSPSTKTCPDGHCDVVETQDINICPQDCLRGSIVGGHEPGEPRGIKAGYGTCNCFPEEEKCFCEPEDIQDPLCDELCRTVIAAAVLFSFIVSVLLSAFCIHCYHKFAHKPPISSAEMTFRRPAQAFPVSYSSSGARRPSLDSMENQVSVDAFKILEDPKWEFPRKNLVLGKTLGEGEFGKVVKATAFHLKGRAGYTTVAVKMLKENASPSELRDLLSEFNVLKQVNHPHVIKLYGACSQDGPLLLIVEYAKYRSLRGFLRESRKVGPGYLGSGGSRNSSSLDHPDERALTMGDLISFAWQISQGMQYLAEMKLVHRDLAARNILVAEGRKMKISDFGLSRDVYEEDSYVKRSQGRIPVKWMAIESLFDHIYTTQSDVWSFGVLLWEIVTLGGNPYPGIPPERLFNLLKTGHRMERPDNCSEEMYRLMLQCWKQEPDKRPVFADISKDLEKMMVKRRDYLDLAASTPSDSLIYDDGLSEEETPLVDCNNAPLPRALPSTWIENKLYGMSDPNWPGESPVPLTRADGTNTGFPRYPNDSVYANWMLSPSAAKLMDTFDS
observation-type: pIC50
Would you please state pIC50, meaning minus log10 of the concentration in mol/L, as a bare number?

Tell me measured pIC50 for C[C@H]1CNC(=O)c2cnn3c(N)c(-c4ccc(NC(=O)OCC5CC5)cc4)c(nc23)NCc2cc(F)cnc2O1 please.
7.66

Please give the documented pIC50 of CNC(=O)Nc1ccc(-c2c3nc4c(cnn4c2N)C(=O)NC[C@H](C)Oc2ncc(F)cc2CN3)cc1
7.07

Consider the compound Nc1c(-c2ccccc2)c2nc3c(cnn13)C(=O)NC1CCCC1Oc1ncc(F)cc1CN2 (centres unmarked) and give its recorded pIC50.
6.47

Supply reported pIC50 belonging to this compound: CCNC(=O)Nc1ccc(-c2c3nc4c(cnn4c2N)C(=O)NC[C@H](C)Oc2ncc(F)cc2CN3)cc1
7.82

Provide only the value of recorded pIC50 for CCOC(=O)Nc1ccc(-c2c3nc4c(cnn4c2N)C(=O)NC[C@H](C)Oc2ncc(F)cc2CN3)cc1F
7.80

# return recorded pIC50 for input CCCOC(=O)Nc1ccc(-c2c3nc4c(cnn4c2N)C(=O)NC[C@H](C)Oc2ncc(F)cc2CN3)cc1
7.45

Please give measured pIC50 of the following entry: C[C@H]1CNC(=O)c2cnn3c(N)c(-c4ccc(N)cc4)c(nc23)NCc2cc(F)cnc2O1
6.44

Please report pIC50 for the following compound: C[C@H]1CNC(=O)c2cnn3c(N)c(-c4ccccc4F)c(nc23)NCc2cc(F)cnc2O1
7.27

Fill in reported pIC50 for this entry: C[C@H]1CNC(=O)c2cnn3c(N)c(-c4ccc(N(C)C)cc4)c(nc23)NCc2cc(F)cnc2O1
6.81

Read the entry CC(C)OC(=O)Nc1ccc(-c2cn3ncc4c3nc2NCc2cc(F)cnc2O[C@@H](C)CNC4=O)cc1 and write its reported pIC50.
7.91

Tell me measured pIC50 for C[C@H]1CNC(=O)c2cnn3cc(-c4ccc(NC(=O)OCC5CC5)cc4Cl)c(nc23)NCc2cc(F)cnc2O1 please.
7.01

Please look at this compound and report its pIC50: C[C@H]1CNC(=O)c2cnn3cc(-c4ccccc4Cl)c(nc23)NCc2cc(F)cnc2O1
7.68

---

molecular target: RET G810R (Homo sapiens, UniProt P07949, G810R); experiment: In vitro kinase activity assay (mobility shift assay), RET G810R; details: ATP 201 μM, reaction time 4 h
Provide the reported pIC50 of each item.
pIC50 here: minus log base 10 of the concentration, concentration in moles per litre.

Read the entry C[C@H]1CNC(=O)c2cnn3c(N)c(-c4ccc(NC(=O)OCC(F)(F)F)cc4)c(nc23)NCc2cc(F)cnc2O1 and write its reported pIC50.
6.81

Look up and state reported pIC50 for C[C@H]1CNC(=O)c2cnn3c(N)c(-c4ccc5nc[nH]c5c4)c(nc23)NCc2cc(F)cnc2O1
6.23

Quick one: give measured pIC50 for Nc1c(-c2ccccc2)c2nc3c(cnn13)C(=O)NCCCc1ncc(F)cc1CN2
6.62

Note pIC50 for the compound shown: CNC(=O)Nc1ccc(-c2cn3ncc4c3nc2NCc2cc(F)cnc2O[C@@H](C)CNC4=O)c(Cl)c1
6.71

For the compound Cc1ccc(-c2c3nc4c(cnn4c2N)C(=O)NC[C@H](C)Oc2ncc(F)cc2CN3)cc1 , give its reported pIC50.
7.30

Reference for the values: patent US20230219978A1
